target: 15-hydroxyprostaglandin dehydrogenase [NAD(+)] (Homo sapiens); test: qHTS Assay for Inhibitors of HPGD (15-Hydroxyprostaglandin Dehydrogenase); conditions: purified HPGD, NADH fluorescence kinetic, PGE2 substrate; hits give low values; further: on the % scale 0 is the no-effect control and ±100 the full control effect
Out of some 150,000 compounds screened, about 6,500 (4.3%) were called active. Another 12% or so got no clear call; they are omitted. For the sample, actives were picked, then their nearest neighbours and some compounds at random.
Kindly state activity change, negative = inhibition for each of the entries shown.
Hi! Could you send only the number? It should be in %, unit omitted.

Item `Cn1c(CO)cnc1SCc1ccccc1` has what recorded activity change, negative = inhibition?
1.72

Item Cc1ccc(NC(=O)CC2S/C(=N/N=C3\CCCc4ccccc43)NC2=O)cc1 (stereo not drawn) has what recorded activity change, negative = inhibition?
-13.9

Item CC(Sc1cccc[n+]1[O-])C(=O)Nc1cccc(S(=O)(=O)N2CCOCC2)c1 (stereo not drawn) has what recorded activity change, negative = inhibition?
-20.6

Item `CCCCCCn1c(SCC(=O)c2ccccc2)nc2c1c(=O)[nH]c(=O)n2C` has what recorded activity change, negative = inhibition?
-21.9

Item Cc1ccc(C2C3=C(Nc4[nH]n(-c5ccccc5)c(=O)c42)c2ccccc2C3=O)cc1 (stereo not drawn) has what recorded activity change, negative = inhibition?
-23.6

Item O=C(OC1CCOC1=O)c1cccc(S(=O)(=O)Nc2ccc(F)cc2)c1 (stereo not drawn) has what recorded activity change, negative = inhibition?
-0.633

Item `COc1ccc(OC)c(-c2c(=O)n(OCc3ccccc3Br)c3ccccc3[n+]2[O-])c1` has what recorded activity change, negative = inhibition?
-7.2

Item `COc1ccc(-c2cc(C(=O)NCc3ccco3)no2)cc1OC` has what recorded activity change, negative = inhibition?
-10.4

Item Cc1cccc(N2C(=O)C3C(c4ccccc4)OC4(C(=O)c5ccccc5C4=O)C3C2=O)c1 (stereo not drawn) has what recorded activity change, negative = inhibition?
-4.94

Item `CCN(CC)C(=O)CSc1nnc(-c2cccc(OC)c2)o1` has what recorded activity change, negative = inhibition?
-11.1

Item `O=C(COC(=O)c1cc(-c2cccs2)nn1-c1ccccc1)Nc1cc([N+](=O)[O-])ccc1Cl` has what recorded activity change, negative = inhibition?
-0.873

Item `O=C(NCCCCCCNC(=O)NCc1ccco1)NCc1ccco1` has what recorded activity change, negative = inhibition?
-9.22

Item `O=C(CNS(=O)(=O)c1ccccc1)NCC(=O)OCc1ccccc1F` has what recorded activity change, negative = inhibition?
0.393

Item `CCCSc1nc2c(c(=O)[nH]c(=O)n2C)n1CCc1ccccc1` has what recorded activity change, negative = inhibition?
-20.7

Item C=C(C(C)=O)C(O)c1cccs1 (stereo not drawn) has what recorded activity change, negative = inhibition?
-6.13

Item Cc1ccc(CC2S/C(=C(/C#N)C(=O)N3CCOCC3)N(c3ccccc3)C2=O)cc1 (stereo not drawn) has what recorded activity change, negative = inhibition?
-13.9

Item `C/C(=N\NC(=O)CCn1nc(C)cc1C)C(C)(C)C` has what recorded activity change, negative = inhibition?
-2.63

Item `O=C(NCc1ccco1)c1ccc(CS(=O)(=O)Cc2ccc(F)cc2)o1` has what recorded activity change, negative = inhibition?
2.28

Item `Cn1nnc2cc(C(=O)NCCC3=CCCCC3)ccc21` has what recorded activity change, negative = inhibition?
-28.7

Item `Cc1[nH]n(-c2cccc(Cl)c2)c(=O)c1-c1ccc(Cl)cc1` has what recorded activity change, negative = inhibition?
-13

Item `Cc1ccc(-n2[nH]c(C)c(/C=N/NC(=O)c3cccc([N+](=O)[O-])c3)c2=O)cc1C` has what recorded activity change, negative = inhibition?
-25.4

Item `Cc1ccc(C)c(NC(=S)NNC(=O)c2csc(C)c2)c1` has what recorded activity change, negative = inhibition?
-5.84

Item COc1ccccc1NC(=O)C1=C(C)NC2=C(C(=O)CCC2)C1c1ccc(C)o1 (stereo not drawn) has what recorded activity change, negative = inhibition?
-4.54

Item `COc1cc(/C=C/C(=O)N2c3ccccc3Sc3ccc(C(F)(F)F)cc32)cc(OC)c1OC` has what recorded activity change, negative = inhibition?
-14.1

Item `COc1ccc(C(=O)Nc2ncc3c(n2)-c2ccccc2CC3)cc1` has what recorded activity change, negative = inhibition?
-20.4

Item `O=c1c2ccccc2c(-c2ccccc2)nn1Cc1ccccc1` has what recorded activity change, negative = inhibition?
-16.5

Item `CN1CCN(c2ccc(S(=O)(=O)N3CCCCC3)cc2NC(=O)Cc2ccccc2F)CC1` has what recorded activity change, negative = inhibition?
3.83

Item `CCCc1noc2c1/C(=N\O)CCC2` has what recorded activity change, negative = inhibition?
-17.1

Item COc1ccc(N2C(=O)C(CC(=O)Nc3ccc(F)cc3)N(CCc3cccs3)C2=O)cc1 (stereo not drawn) has what recorded activity change, negative = inhibition?
-5.46

Item `CC1CCN(c2ccc(C(=O)Nc3nnc(C4CC4)s3)cc2[N+](=O)[O-])CC1` has what recorded activity change, negative = inhibition?
-7.37

Item `Clc1ccc(CSc2nnc(/C=C/c3ccccc3)o2)c(Cl)c1` has what recorded activity change, negative = inhibition?
-24.9

Item Cc1cc(=O)n2nc(N3CCCC(C(=O)NCCC4=CCCCC4)C3)sc2n1 (stereo not drawn) has what recorded activity change, negative = inhibition?
-11.9

Item `Cc1nn(-c2ccccc2)c(C)c1NC(=O)CCl` has what recorded activity change, negative = inhibition?
-8.71
